With a cut-off of 1, any MDR1-MDCK efflux ratio strictly below it is called 1 (yes); any MDR1-MDCK efflux ratio meeting it or above is called 0 (no).

Task: Lab log: compare recorded MDR1-MDCK efflux ratio with 1; is it strictly lower for CCCc1ccc(-c2cccc(C(=O)N3CCN(CC(N)=O)CC3)c2)cc1 ?
Result: 0 (no)

Task: Lab log: compare recorded MDR1-MDCK efflux ratio with 1; is it strictly lower for Cc1c[nH]c(CNCc2ccccc2CC(C)C)n1 ?
Result: 0 (no)

Task: Lab log: compare recorded MDR1-MDCK efflux ratio with 1; is it strictly lower for O=C(NC1CCNCC1)c1ccc2[nH]ncc2c1 ?
Result: 1 (yes)

Task: Lab log: compare recorded MDR1-MDCK efflux ratio with 1; is it strictly lower for Cc1ccc(CN)c(-n2cc(Cl)cn2)n1 ?
Result: 1 (yes)

Task: Lab log: compare recorded MDR1-MDCK efflux ratio with 1; is it strictly lower for O=C(Nc1ccc(N2CCOCC2)nc1)N1CCc2sccc2C1 ?
Result: 0 (no)

Task: Lab log: compare recorded MDR1-MDCK efflux ratio with 1; is it strictly lower for CCN(C(=O)N1CCC(CC(=O)N2CCN(C)CC2)CC1)C(C)C ?
Result: 0 (no)

Task: Lab log: compare recorded MDR1-MDCK efflux ratio with 1; is it strictly lower for Cc1ccc(NC(=O)CN2CCCN(c3ccc(C(F)(F)F)cn3)CC2)cc1 ?
Result: 1 (yes)

Task: Lab log: compare recorded MDR1-MDCK efflux ratio with 1; is it strictly lower for O=C1CN(c2ccc(Nc3nccc(C(F)(F)F)n3)cn2)CCN1 ?
Result: 0 (no)

Task: Lab log: compare recorded MDR1-MDCK efflux ratio with 1; is it strictly lower for CN1CC[C@@H](c2c(O)cc(O)c3c(=O)cc(-c4ccccc4Cl)oc23)[C@@H]1CO ?
Result: 0 (no)

Task: Lab log: compare recorded MDR1-MDCK efflux ratio with 1; is it strictly lower for C[C@]12CCC3=C4CCC(=O)C=C4CC[C@H]3[C@@H]1CC[C@@]2(O)CC#N ?
Result: 0 (no)

Task: Lab log: compare recorded MDR1-MDCK efflux ratio with 1; is it strictly lower for Cc1ccccc1COC1CN(C(=O)Cn2c(=O)[nH]c3ccccc32)C1 ?
Result: 0 (no)

Task: Lab log: compare recorded MDR1-MDCK efflux ratio with 1; is it strictly lower for Cc1nc(C)c(CNc2ncnn2C)s1 ?
Result: 0 (no)

Task: Lab log: compare recorded MDR1-MDCK efflux ratio with 1; is it strictly lower for CCC(C)(C)N1CCN(C(=O)NCCc2cc(C)no2)CC1 ?
Result: 0 (no)

Task: Lab log: compare recorded MDR1-MDCK efflux ratio with 1; is it strictly lower for CSc1ccc(NC(=O)Cn2nc(C3CC3)ccc2=O)cc1 ?
Result: 0 (no)

Task: Lab log: compare recorded MDR1-MDCK efflux ratio with 1; is it strictly lower for O=C(NCCc1csc(N2CCCC2)n1)N1CCSCC1 ?
Result: 0 (no)

Task: Lab log: compare recorded MDR1-MDCK efflux ratio with 1; is it strictly lower for O=c1[nH]c2ccccc2n1C1CCN(CCOc2ccccc2)CC1 ?
Result: 0 (no)

Task: Lab log: compare recorded MDR1-MDCK efflux ratio with 1; is it strictly lower for N#CCCN(c1ncnc2sccc12)C1CC1 ?
Result: 1 (yes)

Task: Lab log: compare recorded MDR1-MDCK efflux ratio with 1; is it strictly lower for CC1=C(Br)CN(CCc2nc3ccccc3c(=O)[nH]2)CC1 ?
Result: 1 (yes)

Task: Lab log: compare recorded MDR1-MDCK efflux ratio with 1; is it strictly lower for O=C(Cc1cccc(I)c1)N1CC(CO)C1 ?
Result: 0 (no)

Task: Lab log: compare recorded MDR1-MDCK efflux ratio with 1; is it strictly lower for COC1(c2nc(Cc3ccccc3)no2)CCN(Cc2cnc(C)o2)CC1 ?
Result: 0 (no)

Task: Lab log: compare recorded MDR1-MDCK efflux ratio with 1; is it strictly lower for O=C(CCCC(=O)N1CCN(c2nsc3ccccc23)CC1)Nc1nccs1 ?
Result: 0 (no)

Task: Lab log: compare recorded MDR1-MDCK efflux ratio with 1; is it strictly lower for OCC1CCCCN1Cc1ccc(Cl)c(Cl)c1 (stereo not drawn) ?
Result: 1 (yes)

Task: Lab log: compare recorded MDR1-MDCK efflux ratio with 1; is it strictly lower for C=CC(=O)N(C)CCOc1c(N)ncnc1-c1cc(F)cc(NC(=O)c2ccc(C3CC3)cc2F)c1C ?
Result: 0 (no)

Task: Lab log: compare recorded MDR1-MDCK efflux ratio with 1; is it strictly lower for CC(=O)N1CCC(Cn2ccnc2-c2cc3ccccc3s2)CC1 ?
Result: 0 (no)

Task: Lab log: compare recorded MDR1-MDCK efflux ratio with 1; is it strictly lower for C#CCOc1ccc(OC)cc1C(N)=O ?
Result: 1 (yes)

Task: Lab log: compare recorded MDR1-MDCK efflux ratio with 1; is it strictly lower for CC(C)c1nnc(CNc2ncc(Br)cn2)n1C ?
Result: 0 (no)

Task: Lab log: compare recorded MDR1-MDCK efflux ratio with 1; is it strictly lower for O=C(Nc1ccccc1-n1ccnc1)c1ccc(F)cc1 ?
Result: 1 (yes)

Task: Lab log: compare recorded MDR1-MDCK efflux ratio with 1; is it strictly lower for COc1ccc(C(=O)c2ccc(Cl)cc2)c(OC)c1 ?
Result: 1 (yes)

Task: Lab log: compare recorded MDR1-MDCK efflux ratio with 1; is it strictly lower for CCCCN1CCN(C(=O)c2cccc(-c3ccc(CO)cc3)c2)CC1 ?
Result: 0 (no)

Task: Lab log: compare recorded MDR1-MDCK efflux ratio with 1; is it strictly lower for O=C(O)c1ccc(N2CCCC2)c(F)c1 ?
Result: 1 (yes)

Task: Lab log: compare recorded MDR1-MDCK efflux ratio with 1; is it strictly lower for O=C(NC[C@H]1CCN(c2ccccc2)C1)N1CCc2sccc2C1 ?
Result: 1 (yes)

Task: Lab log: compare recorded MDR1-MDCK efflux ratio with 1; is it strictly lower for COC(=O)c1cc(F)c(C)c(NC(=O)CCCc2ccccn2)c1 ?
Result: 1 (yes)

Task: Lab log: compare recorded MDR1-MDCK efflux ratio with 1; is it strictly lower for CC(=O)N1CCC(CCNc2ccc3ccc(F)cc3n2)CC1 ?
Result: 1 (yes)

###

Details: pH 6.8
Classification field. Basis: aqueous solubility. Definitions: bottom bin = under 10 µg/mL, middle bin = from 10 µg/mL up to 40 µg/mL, top bin = 40 µg/mL and over

Task: Assign a category based on measured aqueous solubility for Fc1ccc(-n2nc(C3CCOCC3)nc2-c2cn[nH]c2)c(F)c1 and give only the class name.
Result: middle bin

Task: Assign a category based on measured aqueous solubility for Cc1nnc(NC(C2CC2)C2CC2)c(C#N)c1C and give only the class name.
Result: bottom bin

Task: Assign a category based on measured aqueous solubility for N#Cc1ccsc1NC(=O)c1ccccn1 and give only the class name.
Result: bottom bin

Task: Assign a category based on measured aqueous solubility for COc1cc(NC(=O)c2ccc(F)cc2C)ncn1 and give only the class name.
Result: middle bin

Task: Assign a category based on measured aqueous solubility for Cc1ccn(-c2ccc3[nH]c4c(c3c2)CCCC4=O)n1 and give only the class name.
Result: bottom bin

Task: Assign a category based on measured aqueous solubility for CC(=O)Nc1ccnn1C1CCN(Cc2ccccc2C#Cc2ccccc2)CC1 and give only the class name.
Result: middle bin

Task: Assign a category based on measured aqueous solubility for CC(=O)NC1(c2ccc(F)cc2)CCN(Cc2ccc(OC3CCCC3)cc2)CC1 and give only the class name.
Result: top bin

Task: Assign a category based on measured aqueous solubility for Fc1ccc(F)c2c(NCc3ccc(N4CCOCC4)nc3)ccnc12 and give only the class name.
Result: top bin

Task: Assign a category based on measured aqueous solubility for CC(C)c1cc(C(=O)N2Cc3ccc(CN4CCN(C)CC4)cc3C2)c(O)cc1O and give only the class name.
Result: top bin

Task: Assign a category based on measured aqueous solubility for CCC(=O)Nc1cccc(C(=O)N2CCN(C)Cc3ccccc32)c1 and give only the class name.
Result: bottom bin

Task: Assign a category based on measured aqueous solubility for C=CC(=O)Nc1cc(-n2c(=O)ccc3cnc4ccc(-c5ccc(NS(C)(=O)=O)cc5)cc4c32)ccc1C and give only the class name.
Result: bottom bin

Task: Assign a category based on measured aqueous solubility for COc1ccc(-c2noc([C@@H]3CCCN3Cc3cccnc3)n2)cn1 and give only the class name.
Result: middle bin

Task: Assign a category based on measured aqueous solubility for c1ccc(-c2nn3c(-c4ccco4)nnc3c3ccccc23)cc1 and give only the class name.
Result: bottom bin

Task: Assign a category based on measured aqueous solubility for CS(=O)(=O)CCNC(=O)N1CC2(CCCC2)c2ccccc21 and give only the class name.
Result: top bin

Task: Assign a category based on measured aqueous solubility for CC(C)NC(=O)c1cc(-c2ccccc2)n(-c2ccccn2)n1 and give only the class name.
Result: top bin

Task: Assign a category based on measured aqueous solubility for CCc1nnsc1C(=O)Nc1cccc(-c2nnc3n2CCCCC3)c1 and give only the class name.
Result: middle bin

Task: Assign a category based on measured aqueous solubility for O=C(NCCc1ccc2c(c1)OCCO2)c1ccc2ccccc2n1 and give only the class name.
Result: bottom bin

Task: Assign a category based on measured aqueous solubility for CCC1=Nc2c(cnn2-c2cccc(Cl)c2)C2=NCCCN12 and give only the class name.
Result: top bin

Task: Assign a category based on measured aqueous solubility for Cc1ccc(C)c(-n2c(S)nnc2-c2ccc(O)cc2)c1 and give only the class name.
Result: middle bin

Task: Assign a category based on measured aqueous solubility for COc1ccc(C)cc1-c1cccnc1O and give only the class name.
Result: middle bin

Task: Assign a category based on measured aqueous solubility for Cc1ccc2[nH]c(C3CN(C(=O)Cc4cccc5ccccc45)C3)nc2c1 and give only the class name.
Result: bottom bin

Task: Assign a category based on measured aqueous solubility for CC(C)(C)NC(=O)c1cncn1C1CCN(c2ccc(-c3nnc(C(F)(F)F)o3)cn2)CC1 and give only the class name.
Result: top bin

Task: Assign a category based on measured aqueous solubility for Nc1ccc2[nH]c(CCc3ccccc3)nc2c1 and give only the class name.
Result: middle bin

Task: Assign a category based on measured aqueous solubility for Cc1cnc(CNCc2cccc3c2OCO3)s1 and give only the class name.
Result: middle bin

Task: Assign a category based on measured aqueous solubility for COC(=O)[C@@H]1C[C@H](O)CN1CCc1ccccc1F and give only the class name.
Result: top bin

Task: Assign a category based on measured aqueous solubility for O=C(NCC1(c2ccc(F)cc2)CCOCC1)c1ccccn1 and give only the class name.
Result: top bin

Task: Assign a category based on measured aqueous solubility for O=C(Nc1ccc(C(=O)O)c(O)c1)c1ccc(NC(=O)c2cccs2)cc1 and give only the class name.
Result: top bin

Task: Assign a category based on measured aqueous solubility for CCOc1nc(-c2ccc(Cl)c(Cl)c2)n(-c2cccc(NC(=O)c3ccc(F)cc3)c2)n1 and give only the class name.
Result: bottom bin

Task: Assign a category based on measured aqueous solubility for CC(C)c1cc(NC(=O)Cn2nc(-c3ccccc3)ccc2=O)[nH]n1 and give only the class name.
Result: bottom bin

Task: Assign a category based on measured aqueous solubility for CCN(CC)S(=O)(=O)c1ccc2c(c1)CCN2CC(=O)NCc1ccccc1F and give only the class name.
Result: top bin

Task: Assign a category based on measured aqueous solubility for COC(=O)c1c(C)[nH]c(C(=O)N(C)Cc2ccc(OC)c(F)c2)c1C and give only the class name.
Result: top bin

Task: Assign a category based on measured aqueous solubility for O=C(CCN1CCN(C(=O)OCc2cc(Cl)cc(Cl)c2)CC1)c1ccc2[nH]c(=O)oc2c1 and give only the class name.
Result: bottom bin

Task: Assign a category based on measured aqueous solubility for O=C(Cc1ccc2ccccc2c1)NCCc1nc2ccccc2[nH]1 and give only the class name.
Result: middle bin

Task: Assign a category based on measured aqueous solubility for COc1ccc(-c2nnc3nn(C)c(=O)n3c2-c2ccc(OC)cc2)cc1 and give only the class name.
Result: bottom bin

Task: Assign a category based on measured aqueous solubility for CCOc1ncccc1-c1cc(Cl)ccc1O and give only the class name.
Result: middle bin

Value source: the Biogen ADME set (Fang et al. 2023)
